- targetEntity: mouse IP receptor (Mus musculus, UniProt P43252)
- Sequence (P43252 whole entry): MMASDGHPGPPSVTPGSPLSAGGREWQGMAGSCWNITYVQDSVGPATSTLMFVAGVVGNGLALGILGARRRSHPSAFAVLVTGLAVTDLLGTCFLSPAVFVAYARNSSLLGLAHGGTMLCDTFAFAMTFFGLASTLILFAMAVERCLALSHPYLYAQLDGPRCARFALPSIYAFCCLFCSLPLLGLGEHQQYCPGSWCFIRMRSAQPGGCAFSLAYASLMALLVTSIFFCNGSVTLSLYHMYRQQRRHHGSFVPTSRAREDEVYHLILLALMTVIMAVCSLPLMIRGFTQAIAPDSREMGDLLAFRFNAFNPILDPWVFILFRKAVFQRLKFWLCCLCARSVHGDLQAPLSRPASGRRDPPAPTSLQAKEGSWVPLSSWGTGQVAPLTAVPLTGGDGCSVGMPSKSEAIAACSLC
- experimentDescription: Measurement of IP agonist activity (cAMP concentration) in IP-CHO cells
- recordedConditions: cAMP production, read-out: Agonist activity on various prostanoid receptors: EC50 value, IP
Assignment: determine reported pEC50 for the given compounds.
Please express pEC50 as -log10 of the molar concentration.

For CCCCC[C@H](O)/C=C/[C@@H]1[C@H]2CC[C@H](CCCC(=O)O)S[C@H]2C[C@H]1O [Comparative Compound B, reference compound] the compound record lists pEC50 as 6.05

For O=C(O)CCC[C@H]1CC[C@@H]2[C@@H](/C=C/[C@@H](O)COc3ccccc3)[C@H](O)C[C@@H]2S1 [Example 15] the compound record lists pEC50 as 5.21
